# target_system: Genome polyprotein (Dengue virus type 2 (strain 16681-PDK53)) (UniProt P29991)
# assay_explanation: flavivirus cap methylation enzyme inhibition – biochemical, confirmation dose response, primary screen (AID 588689)
# condition_parameters: Dengue-2 NS5 methyltransferase capping enzyme assay, at 25 µM, active compounds read high
Hit rate of the full screen: of about 340,000 compounds, about 1,000 (0.29%) were called active. A selection follows. Potency and affinity values are given separately.
assay_readout: inhibition (%)
Give bare numbers, in %.

COc1ccc(N2CCN(C(=O)c3ccccc3)CC2)c([N+](=O)[O-])c1 :: 0

# batch: return inhibition for each of the 8 compounds below
1. CN(C)c1ccc(/C=N/NC(N)=S)cc1[N+](=O)[O-]
2. CCN(C[C@H]1N[C@@](C)(C(=O)OC)[C@H]2C(=O)N(C)C(=O)[C@@H]12)S(=O)(=O)c1ccc(OC(F)(F)F)cc1
3. CC(/C=C1\SC(=S)N(NC(=O)c2ccc(C)cc2)C1=O)=C\c1ccccc1
4. O=C(c1ccc(Cn2c(=O)[nH]c3ccsc3c2=O)cc1)N1CCN(c2ccccc2)CC1
5. CO[C@H]1/C=C/O[C@@]2(C)Oc3c(C)c(O)c4c(O)c(c(C=NN5CCN(C)CC5)c(O)c4c3C2=O)NC(=O)/C(C)=C\C=C\[C@H](C)[C@H](O)[C@@H](C)[C@@H](O)[C@@H](C)[C@H](OC(C)=O)[C@@H]1C
6. COc1ccc(/C=C2/NC(=O)N(Cc3ccccc3F)C2=O)cc1OC
7. Cc1ccc(/C=C2\NC(=S)NC2=O)cc1[N+](=O)[O-]
8. Cc1ccc(C(=O)Nc2ccc3cn[nH]c3c2)cc1S(=O)(=O)N1CCOCC1

Outgoing:
[-11.3, -7.6, -6.45, -1.16, 6.59, 0.77, 3.12, -0.88]

# batch: return inhibition for each of the 5 compounds below
1. CC(/C=C1\SC(=S)N(NC(=O)c2ccccc2C)C1=O)=C\c1ccccc1
2. COc1ccc(C)cc1CN1C(=O)c2ccccc2C1=O
3. Cc1cccc(CN2CCN(CC(=O)N3CCCC3)C2=O)c1
4. O=C1c2ccccc2C(=O)N1/N=C/c1ccc(Oc2ccc([N+](=O)[O-])cn2)cc1
5. CC(/C=C1\SC(=S)N(NC(=O)c2ccc(O)cc2)C1=O)=C\c1ccccc1

Outgoing:
2.21
-12.4
-5.66
-2.91
2.55

# batch: return inhibition for each of the 2 compounds below
1. CC(C)CN(CC(C)C)c1ccc(/C=N/n2cnnc2)cc1[N+](=O)[O-]
2. O=C1NC(=S)N/C1=C\c1cccc([N+](=O)[O-])c1

Outgoing:
1: -1.82; 2: 2.76

----------
Can you tell me inhibition for the items I'm about to list?
# target_system: Genome polyprotein (Dengue virus type 2 (strain 16681-PDK53)) (UniProt P29991)
# assay_explanation: flavivirus cap methylation enzyme inhibition – biochemical, confirmation dose response, primary screen (AID 588689)
# condition_parameters: Dengue-2 NS5 methyltransferase capping enzyme assay, at 25 µM, active compounds read high
Screen size: about 340,000 compounds; about 1,000 (0.29%) were called active. The list is a sample of the results. Entries with a potency or affinity are not part of this list.
One number for each entry, in %.

Below, 5 compounds whose answers are already recorded.
CCOc1ccccc1/C=C\c1nc(O)c([N+](=O)[O-])c(=O)[nH]1 :: 5.29
O=C(COc1ccccc1/C=C\c1nc(O)c([N+](=O)[O-])c(=O)[nH]1)Nc1ccccc1 :: 2.19
CC(/C=C1\SC(=S)N(CC(=O)O)C1=O)=C\c1ccccc1 :: 26
CCOC(=O)c1sc(N2C(=O)C(O)=C(C(=O)c3ccco3)C2c2ccco2)nc1C (stereo not given) :: -2.93
COC(=O)c1sc(N2C(=O)C(O)=C(C(=O)c3ccc(C)o3)C2c2ccc(F)cc2)nc1C (stereo not given) :: -6.35

# batch: return inhibition for each of the 7 compounds below
1. Cc1ccc(C2=NOC(=O)/C2=C\c2ccccc2)cc1
2. O=Cc1cc(N=Nc2ccccc2Cl)ccc1O
3. Cc1c(C(=O)Nc2cccc([N+](=O)[O-])c2)sc2ncn(CC(=O)N3CCOCC3)c(=O)c12
4. COc1cccc(/C=N/Nc2ccc([N+](=O)[O-])cc2)c1O
5. Cc1ccc(-n2nc3c(=O)n(CC(=O)NCCCc4ccccc4)nc(C)c3c2C)cc1
6. Cc1ccc(S(=O)(=O)Oc2ccccc2/C=C2\SC(=O)NC2=O)cc1
7. N/C(=N\OC(=O)Oc1ccccc1)c1ccc(Cl)cc1

Outgoing:
1. 27.9
2. 11.1
3. -4.39
4. -38.8
5. -3.57
6. 12.8
7. 2.93
